- MEASUREMENT PROTOCOL: DUSP6 inhibitors restoring Erk phosphorylation by chemical complementation, primary imaging in DUSP6-transfected HeLa (AID 609)
- SETUP CONDITIONS: HeLa MKP-3 transfected, phospho-Erk imaging KS statistic; measured here: nuclear c-Myc green intensity z-score; at 10 µM; cells stimulated with TPA for 15 min
Assignment: determine reported z-score for the given compounds.
Answer field: number only, no words.

The compound CCOc1ccc(-c2nnc3sc(COc4ccccc4)nn23)cc1 showed z-score equal to -0.85

Per the records, this compound ( COc1cc(NC2=CC(=O)CC(C)(C)C2)cc(OC)c1OC ) has z-score equal to -0.143

// CC(=O)OCC(=O)[C@@]1(O)CC[C@H]2[C@@H]3CCC4=CC(=O)C=C[C@]4(C)[C@@]3(Cl)[C@@H](Cl)C[C@@]21C : z-score value = 0.179

Kindly note the recorded z-score for OC(CCN1CCCC1)(c1ccccc1)C1CCCCC1 (stereo unspecified) , which is -0.388

Entry Cc1ccc(-c2ccc(/C=N/c3ncn[nH]3)o2)cc1Cl , z-score reported as 1.26

// CN1CCN(CCC(=O)N2c3ccccc3Sc3ccc(Cl)cc32)CC1 : z-score value = 0.747

get_value(item= CCOC(=O)c1cc2c(=O)n3cccc(C)c3nc2n(Cc2cccnc2)c1=N , readout=z-score) returns -1.62

According to the records, this compound CCCSc1nnc2n(-c3ccccc3OC)c(=O)c3c4c(sc3n12)CCC4 displays z-score of -1.06

The compound listed as Nc1nnc(CSCc2ccc(F)cc2)s1 shows z-score equal to 1.17

Lab note: measured z-score of CC(=O)OCC(=O)[C@@]1(O)CC[C@H]2[C@@H]3CCC4=CC(=O)CC[C@]4(C)[C@H]3[C@@H](O)C[C@@]21C was 1.32

Lookup result for Cc1ccc(S(=O)(=O)NC(=O)NN2CCCCCC2)cc1 ; measured z-score: 0.978
